condition.summary: in ethanol, 288.15 K
property.name: solubility (mole fraction)
API note: the answer field is a bare number with no unit suffix.

// query Provide one value: measured solubility (mole fraction) of CN(C)[C@@H]1C(=O)C(C(N)=O)=C(O)[C@@]2(O)C(=O)C3=C(O)c4c(O)cccc4C[C@H]3C[C@@H]12
// result 0.000158

---

condition.summary: in isopropanol, 303.15 K
property.name: solubility (mole fraction)
API note: the answer field is a bare number with no unit suffix.

// query Provide one value: measured solubility (mole fraction) of CN(C)[C@@H]1C(=O)C(C(N)=O)=C(O)[C@@]2(O)C(=O)C3=C(O)c4c(O)cccc4C[C@H]3C[C@@H]12
// result 8.05e-05
